# target_or_system: Mitogen-activated protein kinase kinase kinase 20 (Homo sapiens)
# run_description: Binding affinity to ZAK (unknown origin) assessed as percent of control at 100 nM by Kinomescan method relative to control
# label = satisfied if Activity < 90% else not satisfied

compound=CCCS(=O)(=O)Nc1ccc(F)c(C(=O)c2c[nH]c3ncc(-c4ccc(O)cc4)cc23)c1F class_assignment=satisfied
compound="CCCS(=O)(=O)Nc1ccc(F)c(C(=O)c2ccc3[nH]c4ncc(-c5ccc(S(=O)(=O)NCC(O)CO)cc5)cc4c3c2)c1F (stereo not drawn)" class_assignment="not satisfied"
compound=CCCS(=O)(=O)Nc1ccc(F)c(C(=O)c2n[nH]c3ncc(-c4ccc(O)cc4)cc23)c1F class_assignment=satisfied
compound=CCCS(=O)(=O)Nc1ccc(F)c(C(=O)c2ccc3[nH]c4ncc(-c5ccncc5)cc4c3c2)c1F class_assignment="not satisfied"

Field: below-cutoff. Rule: recorded Activity strictly less than 90%. Subject: CCCS(=O)(=O)Nc1ccc(F)c(C(=O)c2c[nH]c3ncc(-c4ccc(OCC(O)CO)cc4)cc23)c1F (stereo not drawn) satisfied

Field: below-cutoff. Rule: recorded Activity strictly less than 90%. Subject: CCCS(=O)(=O)Nc1ccc(F)c(C(=O)c2n[nH]c3ncc(-c4ccc(S(=O)(=O)NCC(O)CO)cc4)cc23)c1F (stereo not drawn) satisfied

Field: below-cutoff. Rule: recorded Activity strictly less than 90%. Subject: CCCS(=O)(=O)Nc1ccc(F)c(C(=O)c2ccc3[nH]c4ncc(-c5ccccc5F)cc4c3c2)c1F not satisfied
